- experiment: Hemolytic activity in rabbit RBC after 60 mins
- Assay type: ADME, cell-based, Oryctolagus cuniculus, Erythrocyte
- testParameters: rabbit red blood cells (erythrocytes)
quantityMeasured: HC50 at 1 h (µg/mL)
Report the figure in µg/mL without appending any unit label.

**Q:** Would you mind telling me what HC50 at 1 h value was observed for CC(C)=CCOc1ccc(/C=C/C(=O)c2ccc(OCC=C(C)C)cc2OCC(=O)N[C@@H](CCCNC(=N)N)C(=O)N[C@@H](CCCNC(=N)N)C(N)=O)cc1 ?
**A:** 276

**Q:** Further, for COC(=O)[C@H](CCCNC(=N)N)NC(=O)COc1cc(OCC=C(C)C)ccc1C(=O)/C=C/c1ccc(OCC=C(C)C)cc1 ?
**A:** 70

====

- experiment: Cytotoxicity against mouse NCTC clone 929 cells assessed as viability at 12.5 ug/ml after 24 hrs by CCK8 assay relative to control
- Format: cell-based
- testParameters: at 12.5 µg/mL, read-out: Activity
quantityMeasured: viability at 24 h, 12.5 ug/ml (%)
Just the number in %, nothing appended.

**Q:** Item under review: CC(C)=CCOc1ccc(/C=C/C(=O)c2ccc(OCC=C(C)C)cc2OCC(=O)N[C@@H](CCCNC(=N)N)C(=O)N[C@@H](CCCNC(=N)N)C(N)=O)cc1 . Reported viability at 24 h, 12.5 ug/ml?
**A:** 69.9

====

- experiment: Cytotoxicity against mouse NCTC clone 929 cells assessed as viability at 25 ug/ml after 24 hrs by CCK8 assay relative to control
- Format: cell-based
- testParameters: at 25 µg/mL, read-out: Activity
quantityMeasured: viability at 24 h, 25 ug/ml

**Q:** Which viability at 24 h, 25 ug/ml value belongs to CC(C)=CCOc1ccc(/C=C/C(=O)c2ccc(OCC=C(C)C)cc2OCC(=O)N[C@@H](CCCNC(=N)N)C(=O)N[C@@H](CCCNC(=N)N)C(N)=O)cc1 ?
**A:** 55.2%

====

- experiment: Cytotoxicity against mouse corneal fibroblast cells assessed as viability at 6.25 ug/ml after 24 hrs by CCK8 assay relative to control
- Format: cell-based
- testParameters: at 6.25 µg/mL, read-out: Activity
quantityMeasured: viability at 24 h, 6.25 ug/ml (%)
API: value field is a number in %; no unit string.

**Q:** Given the molecule CC(C)=CCOc1ccc(/C=C/C(=O)c2ccc(OCC=C(C)C)cc2OCC(=O)N[C@@H](CCCNC(=N)N)C(=O)N[C@@H](CCCNC(=N)N)C(N)=O)cc1 , what is its reported viability at 24 h, 6.25 ug/ml?
**A:** 76.3

====

- experiment: Cytotoxicity against mouse corneal fibroblast cells assessed as viability at 3.125 ug/ml after 24 hrs by CCK8 assay relative to control
- Format: cell-based
- testParameters: at 3.125 µg/mL, read-out: Activity
quantityMeasured: viability at 24 h, 3.125 ug/ml (%)
Number in %, nothing else.

**Q:** Bench note: what viability at 24 h, 3.125 ug/ml did CC(C)=CCOc1ccc(/C=C/C(=O)c2ccc(OCC=C(C)C)cc2OCC(=O)N[C@@H](CCCNC(=N)N)C(=O)N[C@@H](CCCNC(=N)N)C(N)=O)cc1 show?
**A:** 98

====

- experiment: Cytotoxicity against human MDA-MB-231 cells assessed as viability at 25 ug/ml after 24 hrs by CCK8 assay relative to control
- Type: cell-based
- testParameters: at 25 µg/mL, read-out: Activity
quantityMeasured: viability at 24 h, 25 ug/ml (%)
Output spec: scalar in %, unitless text.

**Q:** Quick check: viability at 24 h, 25 ug/ml of CC(C)=CCOc1ccc(/C=C/C(=O)c2ccc(OCC=C(C)C)cc2OCC(=O)N[C@@H](CCCNC(=N)N)C(=O)N[C@@H](CCCNC(=N)N)C(N)=O)cc1 ?
**A:** 67.7
